# EXPERIMENTAL_PROTOCOL: in vivo
# Parameters: species or system mouse
# TEST_PARAMETERS: mouse, sc, 100 nmol/kg, plasma peptide level at 120 minutes after injection
Where no end group is shown, it is not given here.
ATTRIBUTE_MEASURED: level at time molar at 2 h (nM)
Give bare numbers, in nM.

The recorded level at time molar at 2 h for GAPLEPTYPGDNATPEQLARYAAALRRYINKLTRPRY-NH2 (C-terminus assumed) [PP-x] is 5.81
